biological target: hS1P3 (Homo sapiens, UniProt Q99500); construct: expressed in transfected cells; host or cells: HEK293T cells (transient); assay: [γ-35S]GTP binding assay, HEK293T cell membranes, S1P3; format: biochemical; settings: GTPγS binding
Sequence (Q99500 whole entry): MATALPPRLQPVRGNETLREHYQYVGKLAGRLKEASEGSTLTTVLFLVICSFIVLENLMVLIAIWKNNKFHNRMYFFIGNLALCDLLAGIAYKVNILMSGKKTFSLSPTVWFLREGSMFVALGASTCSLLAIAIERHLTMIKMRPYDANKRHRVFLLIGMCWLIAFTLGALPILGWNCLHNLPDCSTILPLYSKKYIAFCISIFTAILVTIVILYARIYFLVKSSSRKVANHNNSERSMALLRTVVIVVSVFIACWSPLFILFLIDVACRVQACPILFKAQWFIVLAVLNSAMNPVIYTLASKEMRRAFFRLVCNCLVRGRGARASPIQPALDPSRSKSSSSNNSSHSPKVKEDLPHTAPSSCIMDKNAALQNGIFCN
recorded.metric: agonism or inverse agonism (antagonism) at the S1P3 receptor

Answered examples (4):
{"columns": ["compound", "measured.value"],
 "data": [
  ["CCCCCCCCCc1cccc(NC(=O)[C@H](N)COP(=O)(O)O)c1 [VPC23079]", "agonism"],
  ["CCCCCCCCc1cccc(NC(=O)[C@H](N)COP(=O)(O)O)c1 [VPC23019]", "inverse agonists"],
  ["CCCCCCCCc1ccccc1NC(=O)[C@H](N)COP(=O)(O)O [VPC23089]", "inverse agonists"],
  ["CCCCCCCCCCc1cccc(NC(=O)[C@H](N)COP(=O)(O)O)c1 [VPC23069]", "agonism"]
]}

Okay, next one:
Item CCCCCCc1cccc(NC(=O)[C@H](N)COP(=O)(O)O)c1 [VPC23031] has what recorded agonism or inverse agonism (antagonism) at the S1P3 receptor?
inverse agonists

###

Provide the reported EC50 of each item.
target: hS1P2 (Homo sapiens, UniProt O95136); construct: expressed in transfected cells; host or cells: HEK293T cells (transient); assay: [γ-35S]GTP binding assay, HEK293T cell membranes, S1P2; assay type: biochemical; conditions: read-out: EC50 Values (nM) for S1P Analogues at Recombinant S1P Receptors, hS1P2; GTPγS binding; overexpressed human HEK293 cells
Sequence (O95136 whole entry): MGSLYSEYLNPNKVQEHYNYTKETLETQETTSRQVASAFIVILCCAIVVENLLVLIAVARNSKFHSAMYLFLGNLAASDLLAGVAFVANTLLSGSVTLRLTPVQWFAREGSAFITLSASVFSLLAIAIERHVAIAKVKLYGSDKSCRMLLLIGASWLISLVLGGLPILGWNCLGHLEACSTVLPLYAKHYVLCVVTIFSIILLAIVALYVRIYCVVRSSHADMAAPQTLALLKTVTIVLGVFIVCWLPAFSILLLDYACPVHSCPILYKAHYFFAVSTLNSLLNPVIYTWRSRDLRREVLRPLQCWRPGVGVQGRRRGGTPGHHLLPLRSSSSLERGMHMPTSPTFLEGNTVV
Write your answer as a measured quantity: the number, then the unit.

Record `CCCCCCCCCCCCCCOC(=O)[C@@H](N)COP(=O)(O)O` : what is its EC50 with hS1P2 (Homo sapiens, UniProt O95136)?
2680 nM

Query `CCCCCCCCCCCCCCNC(=O)[C@@H](N)COP(=O)(O)O` next
2760 nM

###

Provide the reported EC50 of each item.
Target: zS1P1 (Danio rerio, UniProt Q9DDK4)
Construct: expressed in transfected cells; host or cells: rat hepatoma RH-7777 cells
Sequence (Q9DDK4 1-362): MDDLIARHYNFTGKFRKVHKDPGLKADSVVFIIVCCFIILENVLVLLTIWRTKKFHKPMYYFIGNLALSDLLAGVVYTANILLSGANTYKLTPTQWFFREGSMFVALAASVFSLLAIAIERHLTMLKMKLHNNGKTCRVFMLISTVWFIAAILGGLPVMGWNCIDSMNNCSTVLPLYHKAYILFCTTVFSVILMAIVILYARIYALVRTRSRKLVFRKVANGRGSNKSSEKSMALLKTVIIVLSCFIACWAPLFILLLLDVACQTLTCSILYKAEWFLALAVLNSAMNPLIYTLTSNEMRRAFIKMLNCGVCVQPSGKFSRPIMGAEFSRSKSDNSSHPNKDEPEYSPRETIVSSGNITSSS
Experiment: [γ-35S]GTP binding assay, zebrafish S1P1 overexpressed in rat RH-7777 cells
Type: biochemical
Details: read-out: EC50 Values (nM) for S1P Analogues at Recombinant S1P Receptors, zS1P1; GTPγS binding; zebrafish S1P1 overexpressed rat RH-7777
Experimental: After incubating for 30 minutes at 30° C., bound radionuclide was separated from free by filtration through Whatman GF/C paper using a Brandel Cell Harvester (Gaithersburg, Md.). Rat hepatoma RH7777 cell monolayers were transfected with human or mouse S1P5/pCR3.1 DNA using the calcium phosphate precipitate method, and clonal populations expressing the neomycin phosphotransferase gene were selected by addition of geneticin (G418) to the culture medium. […]

Item `CCCCCCCCCCCCCCOC(=O)[C@@H](N)COP(=O)(O)O` has what recorded EC50?
> 5000 nM

Query `CCCCCCCCCCCCCCNC(=O)[C@@H](N)COP(=O)(O)O` next
> 5000 nM

###

target: mS1P5 (Mus musculus, UniProt Q91X56); construct: expressed in transfected cells; host or cells: HEK293T cells (transient); test: [γ-35S]GTP binding assay, mouse S1P5; assay type: biochemical; conditions: read-out: EC50 Values (nM) for S1P Analogues at Recombinant S1P Receptors, mS1P5, GTPγS binding
Sequence (Q91X56 whole entry): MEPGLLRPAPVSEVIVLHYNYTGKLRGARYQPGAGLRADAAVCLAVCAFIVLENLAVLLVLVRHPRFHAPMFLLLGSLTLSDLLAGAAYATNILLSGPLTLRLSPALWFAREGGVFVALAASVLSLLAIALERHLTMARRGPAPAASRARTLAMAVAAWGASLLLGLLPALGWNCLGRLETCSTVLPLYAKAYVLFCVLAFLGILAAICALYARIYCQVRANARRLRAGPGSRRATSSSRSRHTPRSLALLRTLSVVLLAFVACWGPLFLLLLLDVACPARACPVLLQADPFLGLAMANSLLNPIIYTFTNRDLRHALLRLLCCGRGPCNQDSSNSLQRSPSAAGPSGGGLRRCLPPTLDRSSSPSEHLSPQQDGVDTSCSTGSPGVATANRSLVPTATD
recorded.metric: EC50 (nM)
Respond with the bare value in nM.

Item `CCCCCCCCCCCCCCOC(=O)[C@@H](N)COP(=O)(O)O` has what recorded EC50?
2010
